Reference source: patent US12398154B2

- measurement target: KRas G12C (Homo sapiens, UniProt P01116, G12C)
- Sequence (P01116 1-169 isoform P01116-2 G12C): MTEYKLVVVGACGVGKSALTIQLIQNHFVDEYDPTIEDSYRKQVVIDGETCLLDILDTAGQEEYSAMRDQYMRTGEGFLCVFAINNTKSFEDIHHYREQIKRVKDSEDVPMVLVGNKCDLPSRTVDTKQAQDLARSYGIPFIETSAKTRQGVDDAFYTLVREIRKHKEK
- assay info: biochemical
recorded metric: IC50 (nM)

compound: CCc1c(F)ccc2cc(O)cc(-c3ncc4c(N5CCCn6nc(C(=O)N(C)C)cc6C5)nc(OC[C@@]56CCCN5C[C@H](F)C6)nc4c3F)c12
measurement target: KRas G12C (Homo sapiens, UniProt P01116, G12C)
recorded metric: IC50
censoring qualifier: ≤
recorded value: 2

compound: Cc1cccc2cccc(-c3ncc4c(N5CCCC6(CNC(=O)N6)C5)nc(OCC56CCCN5CCC6)nc4c3F)c12 (centres unmarked)
measurement target: KRas G12C (Homo sapiens, UniProt P01116, G12C)
recorded metric: IC50
censoring qualifier: =
recorded value: 157

compound: C#Cc1c(F)ccc2cc(O)cc(-c3ncc4c(N5CC6C(=O)NC(=O)C6C5)nc(OC[C@@]56CCCN5C[C@H](F)C6)nc4c3F)c12 (some centres unmarked)
measurement target: KRas G12C (Homo sapiens, UniProt P01116, G12C)
recorded metric: IC50
censoring qualifier: ≤
recorded value: 2

compound: O=C1CC2(CCN(c3nc(OCC45CCCN4CCC5)nc4c(F)c(-c5cccc6cccc(F)c56)ncc34)CC2)N1
measurement target: KRas G12C (Homo sapiens, UniProt P01116, G12C)
recorded metric: IC50
censoring qualifier: =
recorded value: 1640

compound: CCc1c(F)ccc2cc(O)cc(-c3ncc4c(N5CCCCCCC5)nc(OC[C@@]56CCCN5C[C@H](F)C6)nc4c3F)c12
measurement target: KRas G12C (Homo sapiens, UniProt P01116, G12C)
recorded metric: IC50
censoring qualifier: ≤
recorded value: 2

compound: O=CNC1CCN(c2nc(OCC34CCCN3CCC4)nc3c(F)c(-c4cccc5cccc(F)c45)ncc23)CC1
measurement target: KRas G12C (Homo sapiens, UniProt P01116, G12C)
recorded metric: IC50
censoring qualifier: =
recorded value: 2820

compound: O=C1CC2(CCCN(c3nc(OCC45CCCN4CCC5)nc4c(F)c(-c5cccc6cccc(C(F)(F)F)c56)ncc34)C2)N1 (centres unmarked)
measurement target: KRas G12C (Homo sapiens, UniProt P01116, G12C)
recorded metric: IC50
censoring qualifier: =
recorded value: 1110

compound: CCc1c(F)ccc2cc(O)cc(-c3ncc4c(NCc5n[nH]cc5C)nc(OC[C@@]56CCCN5C[C@H](F)C6)nc4c3F)c12
measurement target: KRas G12C (Homo sapiens, UniProt P01116, G12C)
recorded metric: IC50
censoring qualifier: =
recorded value: 7

compound: CCc1c(F)ccc2cc(O)cc(-c3ncc4c(N5CCC[C@@](C)(O)C5)nc(OC[C@@]56CCCN5[C@H](COC(=O)N(C)C)CC6)nc4c3F)c12
measurement target: KRas G12C (Homo sapiens, UniProt P01116, G12C)
recorded metric: IC50
censoring qualifier: ≤
recorded value: 2

compound: Cc1cc(-c2ncc3c(N4CCCC(C)(O)C4)nc(OCC45CCCN4CCC5)nc3c2F)c2cn[nH]c2c1 (centres unmarked)
measurement target: KRas G12C (Homo sapiens, UniProt P01116, G12C)
recorded metric: IC50
censoring qualifier: =
recorded value: 17900

compound: C[C@H]1C[C@H]1c1c(Cl)cc2[nH]ncc2c1-c1ncc2c(N3CCC[C@@](C)(O)C3)nc(OC[C@@]34CCCN3C[C@H](F)C4)nc2c1F (racemic)
measurement target: KRas G12C (Homo sapiens, UniProt P01116, G12C)
recorded metric: IC50
censoring qualifier: =
recorded value: 7

compound: Nc1cc2n(n1)CCCN(c1nc(OCC34CCCN3CCC4)nc3c(F)c(-c4cccc5cccc(F)c45)ncc13)C2
measurement target: KRas G12C (Homo sapiens, UniProt P01116, G12C)
recorded metric: IC50
censoring qualifier: =
recorded value: 1260

compound: CCc1cccc2cccc(-c3ncc4c(N5CC6C(=O)NC(=O)C6C5)nc(OCC56CCCN5CCC6)nc4c3F)c12 (centres unmarked)
measurement target: KRas G12C (Homo sapiens, UniProt P01116, G12C)
recorded metric: IC50
censoring qualifier: =
recorded value: 88

compound: O[C@@H]1C[C@H](O)CN(c2nc(OCC34CCCN3CCC4)nc3c(F)c(-c4cccc5cccc(F)c45)ncc23)C1
measurement target: KRas G12C (Homo sapiens, UniProt P01116, G12C)
recorded metric: IC50
censoring qualifier: =
recorded value: 1060

compound: Cc1cccc2cccc(-c3ncc4c(N5CCCC(CS(N)(=O)=O)C5)nc(OCC56CCCN5CCC6)nc4c3F)c12 (centres unmarked)
measurement target: KRas G12C (Homo sapiens, UniProt P01116, G12C)
recorded metric: IC50
censoring qualifier: =
recorded value: 130

compound: O=C1NC(=O)C2(COCCN(c3nc(OCC45CCCN4CCC5)nc4c(F)c(-c5cccc6cccc(F)c56)ncc34)C2)N1 (centres unmarked)
measurement target: KRas G12C (Homo sapiens, UniProt P01116, G12C)
recorded metric: IC50
censoring qualifier: =
recorded value: 141

compound: CCc1cccc2cccc(-c3ncc4c(N5CCCC6(C5)NC(=O)NC6=O)nc(OCC56CCCN5CCC6)nc4c3F)c12 (centres unmarked)
measurement target: KRas G12C (Homo sapiens, UniProt P01116, G12C)
recorded metric: IC50
censoring qualifier: =
recorded value: 6

compound: Fc1c(-c2cccc3cccc(F)c23)ncc2c(N3CCCCC3)nc(OCC34CCCN3CCC4)nc12
measurement target: KRas G12C (Homo sapiens, UniProt P01116, G12C)
recorded metric: IC50
censoring qualifier: =
recorded value: 12700

compound: NC(=O)N1CC(Nc2nc(OCC34CCCN3CCC4)nc3c(F)c(-c4cccc5cccc(Cl)c45)ncc23)C1
measurement target: KRas G12C (Homo sapiens, UniProt P01116, G12C)
recorded metric: IC50
censoring qualifier: =
recorded value: 3520

compound: CCc1c(F)ccc2cc(O)cc(-c3ncc4c(N5CCC[C@@](C)(O)C5)nc(OC[C@]56CCCN5[C@H](COC(=O)N(C)C)CC6)nc4c3F)c12
measurement target: KRas G12C (Homo sapiens, UniProt P01116, G12C)
recorded metric: IC50
censoring qualifier: ≤
recorded value: 2

compound: C#Cc1cccc2cccc(-c3ncc4c(N5CCCC(C)(O)C5)nc(OCC56CCCN5CCC6)nc4c3F)c12 (centres unmarked)
measurement target: KRas G12C (Homo sapiens, UniProt P01116, G12C)
recorded metric: IC50
censoring qualifier: =
recorded value: 295

compound: O=S1(=O)NCC2(CCCN(c3nc(OCC45CCCN4CCC5)nc4c(F)c(-c5cccc6cccc(F)c56)ncc34)C2)N1 (centres unmarked)
measurement target: KRas G12C (Homo sapiens, UniProt P01116, G12C)
recorded metric: IC50
censoring qualifier: =
recorded value: 17

compound: NC(=O)NC1CCN(c2nc(OCC34CCCN3CCC4)nc3c(F)c(-c4cccc5cccc(F)c45)ncc23)CC1
measurement target: KRas G12C (Homo sapiens, UniProt P01116, G12C)
recorded metric: IC50
censoring qualifier: =
recorded value: 1150

compound: CCc1c(F)ccc2cc(O)cc(-c3ncc4c(N5CCC[C@]6(CC(=O)N6)C5)nc(OCC5(CN6CCCC6)CC5)nc4c3F)c12
measurement target: KRas G12C (Homo sapiens, UniProt P01116, G12C)
recorded metric: IC50
censoring qualifier: ≤
recorded value: 2

compound: NS(=O)(=O)CC1CCCN(c2nc(OCC34CCCN3CCC4)nc3c(F)c(-c4cccc5cccc(CF)c45)ncc23)C1 (centres unmarked)
measurement target: KRas G12C (Homo sapiens, UniProt P01116, G12C)
recorded metric: IC50
censoring qualifier: =
recorded value: 916

compound: OCC1COCCN(c2nc(OCC34CCCN3CCC4)nc3c(F)c(-c4cccc5cccc(F)c45)ncc23)C1 (centres unmarked)
measurement target: KRas G12C (Homo sapiens, UniProt P01116, G12C);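 also: binding to KRas assessed by TR-FRET displacement after one hour incubation at room temperature, potency fitted from percent-of-control values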
recorded metric: IC50
censoring qualifier: =
recorded value: 509
